B1: library; a variant is named by its letters at N, in order (parent)
chain: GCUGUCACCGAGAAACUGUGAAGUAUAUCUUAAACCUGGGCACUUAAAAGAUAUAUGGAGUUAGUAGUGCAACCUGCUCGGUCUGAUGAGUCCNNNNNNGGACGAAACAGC

Variants of: B1
PROTOCOL DETAILS: normalized RNA/DNA level without ligand (relative to sTRSVctl = 100) (log10 (% of sTRSVctl)); HEK293T; ligand: cyclic di-GMP (c-di-GMP-II aptamer); higher = less ribozyme self-cleavage, higher mRNA level
APPLIED CONDITIONS: reporter: mCherry (pCS4076), ligand present: no
METRIC: normalized RNA/DNA level without ligand (log10)

{"columns": ["VARIANT NAME", "DATA VALUE"],
 "data": [
  ["GAUCAC", 1.73],
  ["GCACUC", 1.5],
  ["UCCUGU", 1.72],
  ["CUGUCG", 1.73],
  ["UGUACG", 1.79],
  ["AACAAG", 1.52],
  ["UGGGAU", 1.55],
  ["ACCACC", 1.6],
  ["GUUGAA", 1.44],
  ["CUUUAC", 1.73],
  ["GCCCGA", 1.62],
  ["GACCAC", 1.69],
  ["AAUUAC", 1.72],
  ["AUUACG", 1.67],
  ["GAAUAA", 1.44],
  ["CCUGGA", 1.56],
  ["UUGCGA", 1.78],
  ["AGCAAC", 1.65],
  ["CGGCAC", 1.64],
  ["CGCCUG", 1.74],
  ["UCUAAG", 1.64],
  ["AUUUCG", 1.66]
]}
